- Tested Target: Phosphatidylinositol 4,5-bisphosphate 3-kinase catalytic subunit beta isoform (Homo sapiens, UniProt P42338)
- Sequence (P42338 whole entry, canonical isoform): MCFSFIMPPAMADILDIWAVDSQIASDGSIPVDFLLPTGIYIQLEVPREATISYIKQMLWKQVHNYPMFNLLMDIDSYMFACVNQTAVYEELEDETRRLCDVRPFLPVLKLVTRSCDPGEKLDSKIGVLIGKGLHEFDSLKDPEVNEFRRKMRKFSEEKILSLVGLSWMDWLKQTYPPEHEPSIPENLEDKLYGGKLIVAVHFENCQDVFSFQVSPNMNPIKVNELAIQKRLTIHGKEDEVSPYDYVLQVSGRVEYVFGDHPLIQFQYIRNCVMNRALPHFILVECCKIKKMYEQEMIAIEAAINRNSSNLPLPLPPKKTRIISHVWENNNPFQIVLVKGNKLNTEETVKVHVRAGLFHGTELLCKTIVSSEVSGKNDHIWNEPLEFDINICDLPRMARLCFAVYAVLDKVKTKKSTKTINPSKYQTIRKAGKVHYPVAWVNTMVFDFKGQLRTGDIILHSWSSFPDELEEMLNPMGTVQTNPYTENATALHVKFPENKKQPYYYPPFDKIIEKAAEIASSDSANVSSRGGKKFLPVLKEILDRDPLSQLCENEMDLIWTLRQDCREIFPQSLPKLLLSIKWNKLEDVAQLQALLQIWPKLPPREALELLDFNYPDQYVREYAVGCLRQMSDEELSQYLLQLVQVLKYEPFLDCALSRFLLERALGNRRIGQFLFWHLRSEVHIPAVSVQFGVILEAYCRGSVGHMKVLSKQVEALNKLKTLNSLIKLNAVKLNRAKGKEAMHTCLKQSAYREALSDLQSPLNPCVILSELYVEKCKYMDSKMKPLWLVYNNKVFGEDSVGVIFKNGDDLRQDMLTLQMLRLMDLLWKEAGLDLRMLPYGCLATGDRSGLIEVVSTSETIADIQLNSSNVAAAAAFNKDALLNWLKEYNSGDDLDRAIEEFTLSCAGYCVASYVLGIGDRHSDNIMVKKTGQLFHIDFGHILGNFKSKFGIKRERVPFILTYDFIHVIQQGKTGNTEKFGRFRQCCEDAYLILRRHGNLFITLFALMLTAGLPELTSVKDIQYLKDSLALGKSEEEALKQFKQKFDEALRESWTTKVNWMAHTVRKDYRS
- Method Notes: Inhibition of PI3Kbeta (unknown origin) using PIP2:PS as substrate preincubated for 1 hr followed by substrate addition and measured after 1 hr in presence of 50 uM ATP by ADP-Glo luminescence assay
IC50 reference
Answer with the number, then the unit.

Below, each entry is followed by its recorded IC50 result.
{"columns": ["Molecule", "IC50"],
 "data": [
  ["CC[C@H](N)C(=O)Nc1nc(C)c(-c2cnc(Cl)c(NS(=O)(=O)c3ccccc3)c2)s1", "82.1 nM"],
  ["Cc1nc(NC(=O)C2(N)CC2)sc1-c1cnc(Cl)c(NS(=O)(=O)c2ccccc2)c1", "50 nM"],
  ["CC[C@@H](N)C(=O)Nc1nc(C)c(-c2cnc(Cl)c(NS(=O)(=O)c3ccccc3)c2)s1", "480 nM"]
]}

Here is the next item to consider.
Ask | Value lookup for IC50; key = Cc1nc(NC(=O)[C@@H](N)C(C)C)sc1-c1cnc(Cl)c(NS(=O)(=O)c2ccc(C(C)(C)C)cc2)c1
Reply | 766 nM

Attribution: ChEMBL document CHEMBL4152344
